B1: Azoarcus group I ribozyme (parent)
chain: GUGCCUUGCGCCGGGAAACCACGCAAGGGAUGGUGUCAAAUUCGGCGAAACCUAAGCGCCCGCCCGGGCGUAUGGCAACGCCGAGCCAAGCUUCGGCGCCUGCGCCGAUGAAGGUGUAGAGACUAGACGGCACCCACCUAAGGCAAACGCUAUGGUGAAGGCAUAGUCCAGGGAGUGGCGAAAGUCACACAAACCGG

# Variants of: B1
# PROTOCOL_NOTES: reverse-splicing fitness (ratio to wild type); higher = more active; in vitro selection; Mg2+ level not given

[
  {
    "SEQUENCE_CHANGE": "C82U A111G A120G A145U C150A C169U U176G",
    "reverse-splicing fitness": 0.0048
  },
  {
    "SEQUENCE_CHANGE": "A111C A145U C150U C169U U176G",
    "reverse-splicing fitness": 0.00764
  },
  {
    "SEQUENCE_CHANGE": "C82U A111C C169G",
    "reverse-splicing fitness": 0.00866
  },
  {
    "SEQUENCE_CHANGE": "C82A A111C A120U A145U C150A C169G U176G",
    "reverse-splicing fitness": 0.00247
  },
  {
    "SEQUENCE_CHANGE": "C82A A111C A145U C150G C169U U176G",
    "reverse-splicing fitness": 0.00827
  },
  {
    "SEQUENCE_CHANGE": "C82A A120U A145G C150A C169A U176A",
    "reverse-splicing fitness": 0.0062
  },
  {
    "SEQUENCE_CHANGE": "C82A A120G A145U C150G C169U",
    "reverse-splicing fitness": 0.00862
  },
  {
    "SEQUENCE_CHANGE": "C82G A111C A120U A145G C150U U176A",
    "reverse-splicing fitness": 0.0115
  },
  {
    "SEQUENCE_CHANGE": "C82A A111C A120U A145C C150G C169U U176A",
    "reverse-splicing fitness": 0.00398
  },
  {
    "SEQUENCE_CHANGE": "A111C A120C A145C C169G",
    "reverse-splicing fitness": 0.0105
  },
  {
    "SEQUENCE_CHANGE": "A111C A145G C150G",
    "reverse-splicing fitness": 0.212
  },
  {
    "SEQUENCE_CHANGE": "C82G A120C A145C C150U C169A U176A",
    "reverse-splicing fitness": 0.0117
  },
  {
    "SEQUENCE_CHANGE": "A120G A145U C150U C169A U176G",
    "reverse-splicing fitness": 0.00609
  },
  {
    "SEQUENCE_CHANGE": "A120G A145C C150A C169U",
    "reverse-splicing fitness": 0.0377
  },
  {
    "SEQUENCE_CHANGE": "C82A A111G A145U C150U",
    "reverse-splicing fitness": 0.254
  },
  {
    "SEQUENCE_CHANGE": "A111G A120G A145C C150G C169A U176A",
    "reverse-splicing fitness": 0.00837
  },
  {
    "SEQUENCE_CHANGE": "C82A A111C A120C A145G C169A U176C",
    "reverse-splicing fitness": 0.0288
  },
  {
    "SEQUENCE_CHANGE": "C82U A111C A145G C150G C169G U176A",
    "reverse-splicing fitness": 0.00912
  },
  {
    "SEQUENCE_CHANGE": "C82U A111G A120C A145U",
    "reverse-splicing fitness": 0.0519
  },
  {
    "SEQUENCE_CHANGE": "C82G A120C A145U C150U C169U U176C",
    "reverse-splicing fitness": 0.0148
  },
  {
    "SEQUENCE_CHANGE": "C82A A120U A145C C150G C169G",
    "reverse-splicing fitness": 0.0026
  },
  {
    "SEQUENCE_CHANGE": "C82A A145G C150U C169G U176C",
    "reverse-splicing fitness": 0.02
  }
]
